- measured_on: human LXRβ (Homo sapiens, UniProt P55055)
- Sequence (P55055 1-460): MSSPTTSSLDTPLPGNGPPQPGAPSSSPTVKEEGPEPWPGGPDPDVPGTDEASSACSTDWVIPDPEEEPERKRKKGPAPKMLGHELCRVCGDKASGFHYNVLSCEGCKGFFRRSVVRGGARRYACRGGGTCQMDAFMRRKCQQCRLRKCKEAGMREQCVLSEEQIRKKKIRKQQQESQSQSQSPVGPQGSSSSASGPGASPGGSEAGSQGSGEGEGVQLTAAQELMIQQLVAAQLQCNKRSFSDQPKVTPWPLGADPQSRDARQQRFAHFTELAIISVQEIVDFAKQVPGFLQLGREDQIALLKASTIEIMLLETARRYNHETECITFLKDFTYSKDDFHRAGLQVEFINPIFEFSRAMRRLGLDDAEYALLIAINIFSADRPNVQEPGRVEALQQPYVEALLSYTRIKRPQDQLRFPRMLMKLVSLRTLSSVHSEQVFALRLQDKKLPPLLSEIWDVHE
Recorded IC50 by entry
Numeric answer plus unit only.

- CCS(=O)(=O)c1cccc(Oc2cccc(-c3c(Cc4ccccc4)nn4c(C(F)(F)F)ccnc34)c2)c1: 5.3 nM

Below: the item to evaluate.
Q: For O=S(=O)(CCCO)c1cccc(Oc2cccc(-c3c(Cc4ccccc4)nn4c(C(F)(F)F)ccnc34)c2)c1 , what is its reported IC50?
A: 3.4 nM
